Test: chemical genetic growth profiling, strain panel (AID 1159580);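 further: tested at 20 µM; growth read once vehicle control cultures reached saturation at 30 °C; 1 = growth at the plate median or of vehicle wells; lower values mean less growth of the strain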
Settings: S. cerevisiae deletion strains, growth OD, locus YLL001W, strain dnm1, active compounds read low
Out of some 5,500 compounds screened, about 2,000 (36%) were called active. Another 18% or so got no clear call; they are omitted. The list shows a part of the results.
Reported normalized growth is given for each of the following molecules.
# answer = number (no unit)

Recorded normalized growth, per entry:
[
  {
    "Molecule": "O=C(O)C1CCCNC1 (configuration not stated)",
    "Data value": 1.04
  },
  {
    "Molecule": "NC(=O)CS(=O)C(c1ccccc1)c1ccccc1 (configuration not stated)",
    "Data value": 0.972
  }
]

What measured normalized growth goes with CC1[C@H](C)OC(=O)CC(O)CC(O)CC(O)CCC(O)C(O)C[C@]2(O)CC(O)C(C(=O)O)C(CC(OC3O[C@H](C)[C@@H](O)[C@H](N)[C@@H]3O)/C=C/C=C/C=C/C=C/CC/C=C/C=C/[C@H](C)[C@H]1O)O2 (some centres not stated) ?
0.759

Given CC(=O)C1CC[C@H]2C3CC[C@H]4C[C@H](O)CC[C@]4(C)C3CC[C@]12C (some centres not stated) , state its recorded normalized growth.
1

Name the recorded normalized growth for Cc1nnc(NS(=O)(=O)c2ccc(N)cc2)s1 .
0.995

Quick one: normalized growth of CC1C/C=C/C=C/C=C/C=C/C(O[C@@H]2O[C@H](C)[C@@H](O)[C@H](N)[C@@H]2O)CC2OC(O)(CC(O)CC3OC3/C=C/C(=O)O1)CC(O)C2C(=O)O (some centres not stated) ?
0.982

May I ask what normalized growth has been recorded for CC(C)(S)[C@@H](N)C(=O)O ?
1.02

Which measured normalized growth value corresponds to O=C(O)C(O)C(O)C(=O)O (configuration not stated) ?
0.992

// lookup normalized growth for COC[C@]12CN(C=O)C3[C@@H]4[C@H](OC)C1[C@]3(C1CC3(O)C(OC)C(O)C4(OC(C)=O)C1C3OC(=O)c1ccccc1)[C@@H](OC)C[C@H]2O (some centres not stated)
1.01

Entry NC(=O)NC1NC(=O)NC1=O (configuration not stated) has what normalized growth?
1

What value of measured normalized growth is listed for COc1ccc2nc(S(=O)Cc3ncc(C)c(OC)c3C)[nH]c2c1 (configuration not stated) ?
1.01

So what does the record say about normalized growth for CN[C@@H]1C(OC2[C@H](O[C@H]3[C@H](O)[C@@H](O)[C@H](N=C(N)N)[C@@H](O)[C@@H]3N=C(N)N)OC(C)[C@]2(O)CO)OC(CO)C(O)C1O (some centres not stated) ?
0.995

Returns the measured normalized growth for the input molecule. Input: NC(N)=NCCN1CCCCCCC1
1.02

Every entry's value here was drawn from PubChem BioAssay AID1159580.
